The following molecules are shown together with reported melting point values.

{"molecule": "CCOC(=O)c1cc2c([nH]1)c(N(C)S(=O)(=O)c1cccs1)cn2Cc1ccccc1 [Example 18]", "melting point / °C": 120}
{"molecule": "Cc1sc2cc(C3=NCC4(CCNCC4)S3)[nH]c2c1N(C)S(=O)(=O)c1cccs1 [Example 7]", "melting point / °C": 196}
{"molecule": "Cc1sc2cc(C(=O)NCC3(SCc4ccccc4)CCNCC3)[nH]c2c1N(C)S(=O)(=O)c1cccs1 [Example 6]", "melting point / °C": 222}
{"molecule": "CCOC(=O)C(=O)NNC(=O)c1cc2sc(C)c(N(C)S(=O)(=O)c3cccs3)c2[nH]1 [Example 9]", "melting point / °C": 135}
{"molecule": "CC(=O)c1cc2sc(C)c(N(C)S(=O)(=O)c3cccs3)c2[nH]1 [Example 14]", "melting point / °C": 220}
{"molecule": "Cc1sc2cc(C3=NCCS3)[nH]c2c1N(C)S(=O)(=O)c1cccs1 [Example 5]", "melting point / °C": 140}
{"molecule": "CON(C)C(=O)c1cc2sc(C)c(N(C)S(=O)(=O)c3cccs3)c2[nH]1 [Example 13]", "melting point / °C": 187}
{"molecule": "CC(=O)N1CCC2(CC1)CN=C(c1cc3sc(C)c(N(C)S(=O)(=O)c4cccs4)c3[nH]1)S2 [Example 8]", "melting point / °C": 231}
{"molecule": "CCOC(=O)c1cc2sc(C)c(N(C)S(=O)(=O)c3cccs3)c2[nH]1 [Example 3]", "melting point / °C": 161}
{"molecule": "CCOC(=O)c1cc2sc(C)c(N(C)C(=O)OCc3ccccc3)c2[nH]1 [Example 2]", "melting point / °C": 122}
{"molecule": "CCn1cc(N(C)S(=O)(=O)c2cccs2)c2[nH]c(C3=NCCS3)cc21 [Example 17]", "melting point / °C": 163}
{"molecule": "COC(OC)C1CN=C(c2cc3sc(C)c(N(C)S(=O)(=O)c4cccs4)c3[nH]2)S1 (stereo not drawn) [Example 12]", "melting point / °C": 185}
{"molecule": "CCOC(=O)c1cc2c([nH]1)c(N(C)S(=O)(=O)c1cccs1)cn2CC [Example 15]", "melting point / °C": 122}
{"molecule": "CCOC(=O)c1cc2nc(C)n(Cc3ccccc3)c2[nH]1 [Example 1]", "melting point / °C": 193}
{"molecule": "CCOC(=O)c1nnc(-c2cc3sc(C)c(N(C)S(=O)(=O)c4cccs4)c3[nH]2)s1 [Example 10]", "melting point / °C": 209}

These measurements were taken from patent US8492405B2.
